target.under.test: purified human Factor XIa (Homo sapiens (Human))
Sequence (P03951 388-625): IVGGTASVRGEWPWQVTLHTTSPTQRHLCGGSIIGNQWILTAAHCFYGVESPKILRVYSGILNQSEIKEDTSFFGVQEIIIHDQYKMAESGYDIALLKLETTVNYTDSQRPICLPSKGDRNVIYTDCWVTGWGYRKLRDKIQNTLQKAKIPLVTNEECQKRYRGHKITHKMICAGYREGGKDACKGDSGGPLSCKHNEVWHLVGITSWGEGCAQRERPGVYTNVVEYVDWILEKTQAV
Sequence (P03951 19-387 partner): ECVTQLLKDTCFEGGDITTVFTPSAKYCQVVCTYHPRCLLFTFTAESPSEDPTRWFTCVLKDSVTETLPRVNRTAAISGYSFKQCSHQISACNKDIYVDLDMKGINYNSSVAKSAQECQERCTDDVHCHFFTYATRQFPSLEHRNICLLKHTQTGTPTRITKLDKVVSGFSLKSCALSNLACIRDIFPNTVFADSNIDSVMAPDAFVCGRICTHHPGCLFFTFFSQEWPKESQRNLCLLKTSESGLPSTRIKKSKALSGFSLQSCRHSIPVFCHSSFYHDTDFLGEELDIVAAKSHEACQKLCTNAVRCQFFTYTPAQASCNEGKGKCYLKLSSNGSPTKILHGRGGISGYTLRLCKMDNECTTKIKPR
procedure.summary: Factor XIa enzyme inhibition assay (chromogenic substrate S-2366)
condition.summary: read-out: Factor XIa Ki; measured at 25° C.
Counter-ions that a name gives are not always drawn.
Please use fulfilled for Ki under 6 nM and not fulfilled for everything else, ties included.

Inquiry: Is 6 nM strictly greater than the molecule's reported Ki? molecule: O=C(O)c1ccc(NC(=O)C2c3cccc(N4CCN(CC(F)(F)F)CC4=O)c3CCN2C(=O)c2cn(-c3cccc(Cl)c3F)nn2)cc1 (stereo not drawn) [Example 197, TFA salt]
Reply text: fulfilled

Inquiry: Is 6 nM strictly greater than the molecule's reported Ki? molecule: O=C(NC12CCC(C(=O)O)(CC1)CC2)C1c2cccc(-c3cncnc3)c2CCN1C(=O)c1cn(-c2cccc(Cl)c2F)nn1 (stereo not drawn) [Example 143, TFA]
Reply text: fulfilled

Inquiry: Is 6 nM strictly greater than the molecule's reported Ki? molecule: COC1CCN(c2cccc3c2CCN(C(=O)c2cc(-c4cccc(Cl)c4F)ccn2)C3C(=O)Nc2ccc(C(=O)O)cc2)CC1 (stereo not drawn) [Example 322, TFA salt]
Reply text: not fulfilled

Inquiry: Is 6 nM strictly greater than the molecule's reported Ki? molecule: O=C(Nc1ccc(-c2ncc[nH]2)cc1)[C@@H]1c2cccc(-c3cncnc3)c2CCN1C(=O)[C@H]1CC(c2cccc(Cl)c2F)=NO1 [Example 134, TFA salt]
Reply text: fulfilled

Inquiry: Is 6 nM strictly greater than the molecule's reported Ki? molecule: CN(C)Cc1ccc(-c2cccc3c2CCN(C(=O)c2cn(-c4cccc(Cl)c4F)nn2)C3C(=O)Nc2ccc(C(=O)O)cc2)cc1 (stereo not drawn) [Example 154, TFA salt]
Reply text: fulfilled

Inquiry: Is 6 nM strictly greater than the molecule's reported Ki? molecule: COc1ncccc1-c1cccc2c1CCN(C(=O)c1cn(-c3cccc(Cl)c3F)nn1)C2C(=O)Nc1ccc(C(=O)O)cc1 (stereo not drawn) [Example 153, TFA salt]
Reply text: fulfilled

Inquiry: Is 6 nM strictly greater than the molecule's reported Ki? molecule: O=C(O)c1ccc(NC(=O)C2c3cccc(-n4cnnc4)c3CCN2C(=O)c2cn(-c3cccc(Cl)c3F)nn2)cc1 (stereo not drawn) [Example 249, TFA salt]
Reply text: fulfilled

Inquiry: Is 6 nM strictly greater than the molecule's reported Ki? molecule: CC(C)c1nnc2n1CCN(c1cccc3c1CCN(C(=O)c1cn(-c4cccc(Cl)c4F)nn1)[C@@H]3C(=O)Nc1ccc(C(=O)O)cc1)C2 [Example 66, TFA salt]
Reply text: fulfilled

Inquiry: Is 6 nM strictly greater than the molecule's reported Ki? molecule: COC1CCN(c2cccc3c2CCN(C(=O)c2cn(-c4cccc(Cl)c4F)nn2)[C@@H]3C(=O)Nc2ccc(C(=O)O)cc2)CC1 [Example 314, TFA salt]
Reply text: fulfilled

Inquiry: Is 6 nM strictly greater than the molecule's reported Ki? molecule: `O=C(O)c1ccc(NC(=O)[C@@H]2c3ccccc3CCN2C(=O)c2cn(-c3cccc(Cl)c3F)nn2)cc1`
Reply text: not fulfilled

Inquiry: Is 6 nM strictly greater than the molecule's reported Ki? molecule: COC1CCN(c2cccc3c2CCN(C(=O)c2cnn(-c4cccc(Cl)c4F)c2)[C@@H]3C(=O)Nc2ccc(C(=O)O)cc2)CC1 [Example 315, TFA salt]
Reply text: fulfilled

Inquiry: Is 6 nM strictly greater than the molecule's reported Ki? molecule: N#Cc1cccc2c1CCN(C(=O)c1cn(-c3cccc(Cl)c3F)nn1)C2C(=O)Nc1ccc(C(=O)O)cc1 (stereo not drawn)
Reply text: not fulfilled
